- assayed-system: glucagon receptor (UniProt P47871 26-477, limits assumed)
- Sequence (P47871 26-477 limits assumed): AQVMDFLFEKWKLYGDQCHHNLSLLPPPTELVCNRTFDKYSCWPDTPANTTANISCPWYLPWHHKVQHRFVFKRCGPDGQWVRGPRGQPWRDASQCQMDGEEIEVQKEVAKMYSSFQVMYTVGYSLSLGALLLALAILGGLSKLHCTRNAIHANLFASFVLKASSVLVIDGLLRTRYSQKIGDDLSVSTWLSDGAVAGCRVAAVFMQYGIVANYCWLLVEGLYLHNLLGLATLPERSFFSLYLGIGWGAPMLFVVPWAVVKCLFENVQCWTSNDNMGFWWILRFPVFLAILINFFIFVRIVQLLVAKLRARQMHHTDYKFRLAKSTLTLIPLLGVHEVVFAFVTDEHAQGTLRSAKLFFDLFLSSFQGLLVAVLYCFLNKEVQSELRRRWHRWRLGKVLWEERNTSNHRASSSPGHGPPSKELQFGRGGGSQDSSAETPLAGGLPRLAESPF
- assay: cell-based or functional assay
*1 amine or outer side, *2 acyl side, *3 side chain or, on linkers, in order; H or OH if unused. Bridges are numbered along the chain shown (N, C = ends). Where no end group is shown, it is not given here. Side-chain parts run from the residue outwards. [ ]: non-standard residue; d: D form. The star is where a group is joined. Cys(PEG 40 kDa) = Cys with a 40 kDa PEG covalently attached to its side chain (alpha amino acetyl-capped, Ac); γGlu = O=C(O)[C@H](CCC(=O)[*:2])N[*:1]; Palmitoyl = CCCCCCCCCCCCCCCC(=O)*; Myristoyl = CCCCCCCCCCCCCC(=O)*; PEG = not defined here; Aib = CC(C)(N)C(=O)O
So I've got a bunch of binders here, and I need their EC50, nM; Glucagon Receptor values.

Entry Y[Aib]EGTFTSDYSIYLDEQAAKEFVNWLLAGGPSSGAPPPSC(PEG)-NH2 (lactam 16-20; reading uncertain; also: PEG on Cys40 via thioether from haloacetyl) [mt-294] has what EC50, nM; Glucagon Receptor?
230 nM

Entry Y[Aib]EGTFTSDYSIYLDKQAA[Aib]EFVNWLLAGGPSSGAPPPSK([γGlu-γGlu-Palmitoyl])-NH2 [mt-367] has what EC50, nM; Glucagon Receptor?
0.82 nM

Entry Y[Aib]QGTFTSDYSIYLDEQAAKEFVNWLLAGGPSSGAPPPSK([Ala-Cys(PEG 40 kDa)-Ac])-NH2 (lactam 16-20) [mt-225] has what EC50, nM; Glucagon Receptor?
2.71 nM

Entry Y[Aib]EGTFTSDYSIYLDKQAA[Aib]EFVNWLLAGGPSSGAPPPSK(Myristoyl)C-NH2 (also: homodimer: two monomers linked by a disulfide bond between their C-terminal Cys41 residues) [mt-354] has what EC50, nM; Glucagon Receptor?
2.61 nM
